System: MS2 coat protein
Experiment: apparent Kd, MS2 coat protein; higher = weaker binding; RNA-MaP array; theophylline 2 mM where present
Settings: designed as: ON switch for theophylline; no ligand
readout: apparent Kd
Note to self: number, then unit, no commentary.

stdin: So what does the record say about apparent Kd for AAUAACAUGAGGAUCACCCAUGUAAAAGAUACCAGAGUGAUGAUCCUCCCUUGGCAGCUUAAACGCUAUUGGAAACAAUAGCGAA ?
stdout: 70.2 nM

stdin: So what does the record say about apparent Kd for UUAGAUAUGACGGAUACCAGCGUGUUGUAGAACAUGAGGAUCACCCAUGUAGUGAUCGUGCGCCCUUGGCAGCUGGUAUGUUUGG ?
stdout: 250 nM

stdin: So what does the record say about apparent Kd for AAGGUGAUCCCAGAUACCAGCUUAACAUGAGGAUCACCCAUGUUUGGGACGAAAGUCCCGGGCCCUUGGCAGCUGGGUUGCCAAG ?
stdout: 196 nM

stdin: So what does the record say about apparent Kd for AAAAUAAAUAAAACGGGUAACAUGAAGGAUACCAGCCAGGAAACUGGCCCUUGGCAGCCUCUACAUGAGGAUCACCCAUGUCCCG ?
stdout: 445 nM

Just for reference, the EternaBench riboswitch data is where these values come from.
